- Tested on: Ileum
- MEASUREMENT PROTOCOL: Spasmolytic activity in guinea pig ileum assessed as inhibition of spontaneous contraction relative to papaverine
- Type: functional, Cavia porcellus
Use TRUE when the recorded Ratio IC50 is no lower than 4; use FALSE when it is lower.

# count of solved cases: 4
>>> df
                        compound  system  classification
0        COc1ccc(CCc2ccccc2)cc1O   Ileum           FALSE
1  COc1cccc(CCc2cc(O)cc(OC)c2)c1   Ileum           FALSE
2  COc1ccc(CCc2cc(O)cc(O)c2)cc1O   Ileum            TRUE
3   COc1cc(O)cc(CCc2cccc(O)c2)c1   Ileum            TRUE

Entry "COc1cccc(CCc2cc(OC)cc(OC)c2)c1" : is its Ratio IC50 no less than 4?
TRUE

Entry "COc1cc(CCc2ccc(O)c(OC)c2)cc(OC)c1" : is its Ratio IC50 no less than 4?
FALSE

Entry Oc1cc(O)cc(CCc2ccccc2)c1 [DIHYDROPINOSYLVIN] : is its Ratio IC50 no less than 4?
FALSE
